- measurement_target: T1, extracellular binding domain of human SIRPγ (plate-coated) (human, UniProt Q9P1W8 29-360)
- T1 construct: also called hSIRPγ
- T1 sequence (Q9P1W8 29-360 limits assumed): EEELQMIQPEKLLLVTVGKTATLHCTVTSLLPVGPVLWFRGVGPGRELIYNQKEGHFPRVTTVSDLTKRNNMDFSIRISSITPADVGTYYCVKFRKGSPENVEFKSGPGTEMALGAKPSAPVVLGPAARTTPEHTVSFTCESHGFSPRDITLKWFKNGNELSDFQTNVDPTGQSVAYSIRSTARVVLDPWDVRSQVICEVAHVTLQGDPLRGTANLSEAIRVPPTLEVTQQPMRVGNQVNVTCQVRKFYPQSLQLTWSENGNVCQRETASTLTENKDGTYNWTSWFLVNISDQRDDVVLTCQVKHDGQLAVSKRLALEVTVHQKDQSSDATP
- method_notes: ELISA, coated SIRP ECD (2 µg/mL), anti-human IgG, luminescence
measured_endpoint: EC50 (read off the curve)

binder="Antibody 80 (antibody, V domains shown) VH: QVQLVQSGAEVKKPGASVKVSCKASGYTFTRYDINWVRQAPGQGLEWMGWMNPNSGNTGYAQKLQGRVTMTRDTSTSTVYMELSSLRSEDTAVYYCARERVGYCSSTSCLHPLDYWGQGTLVTVSS VL: DIQMTQSPSSLSASVGDRVTITCRASQGIRNDLGWYQQKPGKAPKLLIYSASNLQSGVPSRFSGSGSGTDFTLTISSLQPEDFATYYCQQSYDVPLTFGGGTKVEIK" result="~0.02 µg/mL"
binder="Antibody 89 (antibody, V domains shown) VH: QVQLVQSGAEVKKPGASVKVSCKASGGTFSSYAISWVRQAPGQGLEWMGIINPSSSSTGYAQKFQGRVTMTRDTSTSTVYMELSSLRSEDTAVYYCARAGYYDSSGYYYSPYYGMDVWGQGTTVTVSS VL: EIVMTQSPATLSVSPGERATLSCRASQSISGSYLAWYQQKPGQAPRLLIYGASTRATGIPARFSGSGSGTEFTLTISSLQSEDFAVYYCQQYGSFPFTFGPGTKVDIK" result="~0.3 µg/mL"
binder="Antibody 88 (antibody, V domains shown) VH: QVQLVQSGAEVKKPGASVKVSCKASGYTFTSHDINWVRQAPGQGLEWMGWMNANNGNAGYAQKFQGRVTMTRDTSTSTVYMELSSLRSEDTAVYYCAKDLSPSSSWSTYYYYYGMDVWGQGTMVTVSS VL: DIQMTQSPSSLSASVGDRVTITCRASQSISNLLAWYQQKPGKAPKLLIYAASSLQSGVPSRFSGSGSGTDFTLTISSLQPEDFATYYCQQSYSTPYTFGQGTKLEIK" result="~0.04 µg/mL"
binder="Antibody 8 (antibody, V domains shown) VH: QVQLVQSGAEVKKPGASVKVSCKASGYTFTGYHIHWVRQAPGQGLEWMGWINPNSGGTNYAQKFQGRVTMTRDTSINTAYMELNRLRSDDTAVFYCARERVGYCSRPSCLDDLNIWGQGTMVTVSS VL: DIQMTQSPSTLSASVGDRVTITCRASQSISSWLAWYQQKPGKAPKLLIYKASSLETGVPSRFSGSGSGTEFTLTISSLQPDDFATYYCQQYDSYYTFGQGTKLEIK" result="~0.04 µg/mL"
binder="Antibody 76 (antibody, V domains shown) VH: QVQLVQSGAEVKKPGSSVKVSCKASGGTFSKIAVSWVRQAPGQGLEWMGLINPNSGGTDYAQKFQGRVTITADESTSTAYMELSSLRSEDTAVYYCAKDFRGGDYYYYGMDVWGQGTTVTVSS VL: EIVMTQSPATLSVSPGERATLSCRASQSVSSNLAWYQQKPGQAPRLLIYGASTRATGIPARFSGSGSGTEFTLTISSLQSEDFAVYYCQQYNTYPITFGQGTKVEIK" result="~0.09 µg/mL"
